Values compiled from ChEMBL document CHEMBL3297740.

organism: Rattus norvegicus; assay: Hepatotoxicity in streptozotocin-induced in Albino Wistar rat diabetic model assessed increase in sinusoidal dilatation by Haematoxylin/Eosin staining-based microscopy; assay type: toxicity, organism-based; conditions: in vivo
Observation type: Activity

Compound: CCc1ccc(CCOc2ccc(CC3SC(=O)NC3=O)cc2)nc1 (stereo unspecified)
Observation type: Activity
Endpoint result: Toxic
--
Compound: O=C1NC(=O)C(Cc2coc3ccc(Br)cc3c2=O)S1 (stereo unspecified)
Observation type: Activity
Endpoint result: Toxic
--
Compound: O=C1NC(=O)C(Cc2coc3ccc(F)cc3c2=O)S1 (stereo unspecified)
Observation type: Activity
Endpoint result: Toxic
--
Compound: COc1ccc2occ(CC3SC(=O)NC3=O)c(=O)c2c1 (stereo unspecified)
Observation type: Activity
Endpoint result: Non-toxic
--
Compound: O=C1NC(=O)C(Cc2coc3c(Cl)cc(Cl)cc3c2=O)S1 (stereo unspecified)
Observation type: Activity
Endpoint result: Toxic

Q: Indicate the recorded Activity value for this compound: O=C1NC(=O)C(Cc2coc3ccc(Cl)cc3c2=O)S1 (stereo unspecified)
Ans: Non-toxic

---

species: Rattus norvegicus; assay: Toxicity in streptozotocin-induced in Albino Wistar rat diabetic model assessed as liver damage by Haematoxylin/Eosin staining-based microscopy; assay type: organism-based; settings: in vivo
Observation type: Activity

Compound: O=C1NC(=O)C(Cc2coc3c(Cl)cc(Cl)cc3c2=O)S1 (stereo not given)
Activity: Toxic
//
Compound: COc1ccc2occ(CC3SC(=O)NC3=O)c(=O)c2c1 (stereo not given)
Activity: Non-toxic
//
Compound: O=C1NC(=O)C(Cc2coc3ccc(Cl)cc3c2=O)S1 (stereo not given)
Activity: Non-toxic
//
Compound: O=C1NC(=O)C(Cc2coc3ccc(Br)cc3c2=O)S1 (stereo not given)
Activity: Toxic

Now consider a different compound.
Q: Indicate the recorded Activity value for this compound: O=C1NC(=O)C(Cc2coc3ccc(F)cc3c2=O)S1 (stereo not given)
Ans: Toxic
